# protocol: chemical genetic growth profiling, strain panel (AID 1159580);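 note: tested at 20 µM; growth read once vehicle control cultures reached saturation at 30 °C; lower values mean less growth of the strain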
# conditions: S. cerevisiae deletion strains, growth OD, locus YLR330W, strain CHS5
Hit rate of the full screen: of about 5,500 compounds, about 2,000 (36%) were called active. Roughly 18% stayed inconclusive and do not appear here. Cut-off read from the data, not from the text of the source: active = normalized growth mostly below about 0.91 (no sharp cut-off); inconclusive = no clear call, values can overlap the other calls; inactive = mostly above about 0.92. The list shows a part of the results.
Hi there, use one of these labels in your reply, thanks! active, inactive

Example results:
Nc1c2c(nc3ccccc13)CCCC2O (stereo unspecified) :: inactive
C=C/C(C)=C\CC1C(C)(O)CCC2C(C)(C)CCCC21C (stereo unspecified) :: active
COc1ccc2c3c([nH]c2c1)C(C)=NCC3 :: inactive

## Task Which result was noted for this compound in the test: Nc1c2c(nc3ccccc13)CCCC2
## Result inactive

## Task // param item: C#C[C@]1(O)CCC2C3CCC4=CC(=O)CC[C@@H]4C3CC[C@@]21C (stereo partly specified) ; yields the recorded call
## Result inactive

## Task Dear colleague, could you share the recorded outcome for CCOC(=O)OC(C)OC(=O)C1N2C(=O)C(NC(=O)[C@H](N)c3ccccc3)C2SC1(C)C (stereo partly specified) when you have a moment?
## Result inactive

## Task # lookup: test call for C/C=C1\[C@H]2C=C(C)C[C@]1(N)c1ccc(=O)[nH]c1C2
## Result inactive

## Task Please share the test call associated with CCCOc1ccccc1-c1nc2n[nH]nc2c(=O)[nH]1 .
## Result inactive
